Test Target: T1, SARS-CoV2 Spike ecto foldon Trimer expressed with a C-terminal myc-myc-hexahistidine (SARS-CoV-2, UniProt P0DTC2 14-1213)
T1 construct: extracellular domain
Protocol Summary: SPR Biacore, mAb captured by anti-hFc, 25C
Measure Name: Kd (nM)
Express it in nM; write the number only.

Ask | Using known records, supply Kd for mAb14312 (antibody, V domains shown) VH: EVQLVESGGGLVQPGGSLRLSCAASGFTVSRSYMTWVRQAPGKGLEWVSVIFTGGRTDHADSVKGRFTISRHNSKNTLYLQMNSLRTEDTAVYYCARVAIVGATGAFDIWGQGTMVTVSS VL: QSVLTQPPSVSGAPGQRVTISCTGSSSNIGAGDDVHWYQQLPGTAPKLLIYGNSNRPSGVPDRFSGSKSGTSASLAITGLQAEDEADYYCQSYDSSLSGSVVFGGGTKLTVLG
Reply | 0.0272

Ask | Using known records, supply Kd for mAb14280 (antibody, V domains shown) VH: QVQLVQSGAEVKKPGASVRVSCKASGYTFTGNYIHWVRQAPGQGLEWMAWINPNSGGKNYAQKFQGRVTLTRDTSVNTAYMELSRLRSDDTAMYYCARDVNYNILTGPGGLWGQGTLVTVSS VL: QSALTQPPSASGSPGQSVTISCTGTSSDVGGYNFVSWYQQHPGKAPKLMIYEVSKRPSGVPDRFSGSKSGNTASLTVSGLQAEDEADYYCSSYAGSNNFVFGTGTKVTVLG
Reply | 0.0136

Ask | Using known records, supply Kd for mAb15166 (antibody, V domains shown) VH: EVQLVESGGGLVQPGGSLRLSCAASGFTVTSNYMSWVRQAPGKGLEWVSAIYSGESTYYADSVKGRFTISRDSSKNTLYLQMNSLRVEDTAVYYCASIHDYSNYVGGFDPWGQGTLVTVSS VL: QSALTQPASVSGSPGQSITISCTGPSSDFGSYNLVSWYQQHPGKAPKLMIYEGTKRPSGVSNRFSGSKSGNTASLTISGLQAEDEADYYCSSYAGSSTWVFGGGTKLTVLG
Reply | 0.63

Ask | Using known records, supply Kd for mAb14255 (antibody, V domains shown) VH: QVQLQESGPGLVKPSETLSLTCTVSGGSISGYYWSWIRQPPGKGLDWIGYIYYRGNTNYNPSLKSRVTISVDTSNNQFSLKLSSVTAADTAVYYCARYGEGYGDASGYHFDYWGQGTLVTVSS VL: QSALTQPASVSGSPGQSITISCTGTSSDVGSYNLVSWYQQHPGKAPKLMIYEDSKRPSGVANPFSGSKSGNTASLTISGLQAEDEADYYCSSYAGSSTWVFGGGTKLTVLG
Reply | 0.0706

Ask | Using known records, supply Kd for mAb14294 (antibody, V domains shown) VH: EVQLVESGGGLVQPGGSLRLSCAASGFTFSNHWMDWVRQAPGKGLVWVSRINSDGSSTDYADSVRGRFTMSRDNAKNTLYLQMSSLRAEDTAVYYCAREGMIFGAVIIPGWYFDLWGRGALVTVSS VL: EIVLTQSPGTLSLSPGERATLSCRASQSVSSSQLAWYQQKPGQAPRLLIYGASSRATGIPDRFSGSGSGTDFTLTISRLEPEDFAVYYCQQYDSFGQGTKLEIKR
Reply | 0.0329

Ask | Using known records, supply Kd for mAb14258 (antibody, V domains shown) VH: QLQLQESGPGLVKPSETLSLICTGSGDSISSSHYYWGWIRQPPGKGLEWIGSTYFSGSTYYNPSLKSRVSISVDTSKNQVSLKLISVTAADTAVYYCAREMGATLGDYWGPGTLVTVSS VL: QSVLTQPPSASGTPGQRVTISCSGSSSNIGNNYVYWYQQFPGTTPRLLIYRNNERPSGVPDRFSGSKSGTSASLVISGLRSEDEADYYCAAWDDSLSAHYVFGTGTKVTVLG
Reply | 0.0232

Ask | Using known records, supply Kd for mAb14234 (antibody, V domains shown) VH: QVQLVESGGGVVQPGRSLRLSCAASGFTFSSYGIHWVRQAPGKGLEWVAIIWYDGSEKYYADSVKGRFTISRDNSKNTLFLQMNSLEAEDTAVYYCARGPDLLTGYYNYFYYGMDVWGQGTTVTVSS VL: QSVLTQPPSVSGAPGQRVTISCTGSSSNIGIGYDVHWYQQLPGTVPKLLIYGNTNRPSGVPDRFSGSKSGTSASLAITGLQAEDEADYYCQSYDSSLSSYVFGTGTKVTVLG
Reply | 0.0775

Ask | Using known records, supply Kd for mAb15170 (antibody, V domains shown) VH: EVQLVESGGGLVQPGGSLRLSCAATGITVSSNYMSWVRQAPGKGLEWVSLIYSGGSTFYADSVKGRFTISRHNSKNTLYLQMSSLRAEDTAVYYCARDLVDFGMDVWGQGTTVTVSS VL: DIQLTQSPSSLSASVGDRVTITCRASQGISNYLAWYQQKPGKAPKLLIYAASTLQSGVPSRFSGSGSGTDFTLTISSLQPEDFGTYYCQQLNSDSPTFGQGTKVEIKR
Reply | 0.11

Ask | Using known records, supply Kd for mAb15162 (antibody, V domains shown) VH: EVQLVETGGGLIQPGGSLRLSCAASEFIVSRNYMSWVRQAPGKGLEWVSLIYSGGSTYYADSVKGRFTISRDNSKNILYLQMNSLRAEDTAVYYCARDRGGISDYWGQGTLVTVSS VL: DIQMTQSPSSLSASVGDRVTITCQASQDINKYLNWFQQKPGKAPKLLIYDASNLETGVPSRFSGSGSGTDFTFTISSLQPEDIATYYCQQYDNLPRTFGQGTKLEIKR
Reply | 0.648

Each recorded value in this set is attributed to patent US20260069689A1.
